molecular target: Androgen receptor (Homo sapiens) (UniProt P10275); assay: qHTS assay to identify small molecule agonists of the androgen receptor (AR) signaling pathway using the MDA cell line (AID 743040; note: nearly all actives have a fitted effect of over 20% in size); details: MDA-kb2 AR-luc cells, MMTV luciferase, 16 h; series mostly up to 70.3 µM
Sequence (P10275 whole entry, looked up): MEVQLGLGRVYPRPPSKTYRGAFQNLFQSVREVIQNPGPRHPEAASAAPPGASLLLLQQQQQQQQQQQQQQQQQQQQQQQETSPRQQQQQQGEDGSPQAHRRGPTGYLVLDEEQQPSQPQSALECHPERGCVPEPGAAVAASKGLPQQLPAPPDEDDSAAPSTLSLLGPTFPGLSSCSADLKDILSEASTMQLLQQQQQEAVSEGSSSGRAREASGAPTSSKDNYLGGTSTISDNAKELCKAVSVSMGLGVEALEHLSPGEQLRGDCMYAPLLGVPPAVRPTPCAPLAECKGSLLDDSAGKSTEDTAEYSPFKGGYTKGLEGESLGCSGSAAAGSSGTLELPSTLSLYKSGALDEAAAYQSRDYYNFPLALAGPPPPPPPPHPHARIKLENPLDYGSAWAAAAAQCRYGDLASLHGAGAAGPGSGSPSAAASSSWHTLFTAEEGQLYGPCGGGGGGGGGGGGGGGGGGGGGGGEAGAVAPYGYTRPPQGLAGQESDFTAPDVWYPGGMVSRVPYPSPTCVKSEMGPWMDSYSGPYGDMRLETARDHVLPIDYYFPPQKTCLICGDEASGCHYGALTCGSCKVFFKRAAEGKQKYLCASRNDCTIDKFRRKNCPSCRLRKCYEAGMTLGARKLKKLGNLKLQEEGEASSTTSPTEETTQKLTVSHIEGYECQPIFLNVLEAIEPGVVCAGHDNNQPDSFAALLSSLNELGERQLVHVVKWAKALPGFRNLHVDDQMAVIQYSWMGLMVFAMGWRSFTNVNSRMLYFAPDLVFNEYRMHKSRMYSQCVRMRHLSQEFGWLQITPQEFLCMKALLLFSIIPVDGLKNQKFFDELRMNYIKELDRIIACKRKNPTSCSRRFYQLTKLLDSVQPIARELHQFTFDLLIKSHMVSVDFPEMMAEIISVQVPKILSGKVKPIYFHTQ
Calls of active or inactive are those of the source. Calls come from the whole dose curve; as a rule, active = well fitted activation curve with a large enough effect in the repeat runs; inconclusive = weak or mixed curves; inactive = flat fitted curve, though single readings scatter.
Test Readout: outcome

Smiles Repr | Reported Result
COC(=O)c1c(C(F)F)nc(C(F)(F)F)c(C2=NCCS2)c1CC(C)C | inactive
COc1ncc(F)c2nc(S(=O)(=O)Nc3c(F)cccc3F)nn12 | inactive
CCC(=O)c1ccccc1 | inactive

====

experiment: A CellTox Green Cytotoxicity Assay to monitor cytotoxicity in HepG2 cells - 16 hour (AID 1224876); conditions: CellTox Green fluorescence; series mostly up to 76.8 µM; note: nearly all actives have a fitted effect of over 45% in size
Results filed as inconclusive are left out. Calls of active or inactive are those of the source. Calls come from the whole dose curve; as a rule, active = well fitted activation curve with a large enough effect in the repeat runs; inconclusive = weak or mixed curves; inactive = flat fitted curve, though single readings scatter.
Possible outcomes: t (active), f (inactive)

Compound | Discrete Label
CCC1(c2ccccc2)C(=O)NC(=O)NC1=O | f
CCC(C)(C)c1cc(-n2nc3ccccc3n2)c(O)c(C(C)(C)CC)c1 | f
COP(=S)(OC)Oc1ccc(S(N)(=O)=O)cc1 | f
c1cc[c]([Hg][c]2ccccc2)cc1 | f
CCOP(=S)(OCC)SCSP(=S)(OCC)OCC | f
O=C(Cc1ccccc1)OCc1ccccc1 | f
CCC/C(=N\OCC)C1=C(O)CC(CC(C)SCC)CC1=O (centres undefined) | f
N#CC(CCc1ccc(Cl)cc1)(Cn1cncn1)c1ccccc1 (centres undefined) | t
O=[N+]([O-])c1cccc2cccnc12 | f

====

biological target: Acetylcholinesterase (Homo sapiens) (UniProt P22303); experiment: Acetylcholinesterase (AChE) small molecule antagonists: fluorescence cell-based qHTS assay (AID 1347398); settings: SH-SY5Y cells; AChE activity; series mostly up to 115 µM; note: nearly all actives have a fitted effect of over 50% in size
Sequence (P22303 whole entry, looked up): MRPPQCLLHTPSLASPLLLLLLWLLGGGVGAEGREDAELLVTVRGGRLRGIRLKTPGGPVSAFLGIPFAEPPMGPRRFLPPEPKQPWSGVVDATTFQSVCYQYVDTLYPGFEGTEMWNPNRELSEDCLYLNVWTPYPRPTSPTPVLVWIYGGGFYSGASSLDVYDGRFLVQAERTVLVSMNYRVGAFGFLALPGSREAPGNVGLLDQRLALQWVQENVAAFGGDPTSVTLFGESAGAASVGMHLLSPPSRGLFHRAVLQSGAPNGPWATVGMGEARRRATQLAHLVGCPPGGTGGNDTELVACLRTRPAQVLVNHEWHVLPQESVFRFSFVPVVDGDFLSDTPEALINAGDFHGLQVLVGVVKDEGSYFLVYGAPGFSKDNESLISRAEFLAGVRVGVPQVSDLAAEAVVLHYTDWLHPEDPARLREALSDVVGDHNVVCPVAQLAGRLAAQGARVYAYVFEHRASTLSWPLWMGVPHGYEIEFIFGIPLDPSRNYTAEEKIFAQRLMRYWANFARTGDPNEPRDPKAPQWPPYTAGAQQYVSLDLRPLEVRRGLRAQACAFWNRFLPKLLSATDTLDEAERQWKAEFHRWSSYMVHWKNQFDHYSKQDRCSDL
Results filed as inconclusive are left out. Activity calls are given as the source filed them. Calls come from the whole dose curve.
Possible outcomes: TRUE for active, FALSE for inactive

Smiles Repr | Discrete Label
CC(C)[N+](=O)[O-] | FALSE
CNC(=O)O/N=C(\C)SC | TRUE
Cc1ncsc1CCCl | FALSE
N#Cc1c(Cl)cccc1Cl | FALSE

====

target: Androgen receptor (Homo sapiens) (UniProt P10275); experiment: qHTS assay to identify small molecule antagonists of the androgen receptor (AR) signaling pathway using the MDA cell line in the presence of 0.5 nM R1881 (AID 1259243); settings: MDA-kb2 MMTV-luciferase, R1881 0.5 nM, 16 h; series mostly up to 92.4 µM; note: nearly all actives have a fitted effect of over 50% in size
Records with an inconclusive call do not appear. Activity calls are given as the source filed them. The call rests on the fitted dose curve; in most records, active means well fitted inhibition curve with a large enough effect in the repeat runs; inconclusive means weak or mixed curves; inactive means no such curve, though single readings can be large or run the other way.
Possible outcomes: y for active, n for inactive

Molecule | Discrete Label
Cc1cnc[nH]1 | n
CCC(=O)c1ccccc1 | n
COC(=O)C(c1ccccc1)C1CCCCN1 (stereo unspecified) | n
CC1COC2(c3ccccc3Cl)c3cc(Cl)ccc3NC(=O)CN12 (stereo unspecified) | n
CNC(=O)Oc1ccccc1C1OCCO1 | n
Clc1ccccc1N1CCNCC1 | n
Fc1cc(Br)ccc1CBr | n
Nc1ccccc1Cl | n
c1ccc(N2CCNCC2)cc1 | n
C[C@]12CC[C@H]3[C@@H](CCC4=CC(=O)CC[C@@]43C)[C@@H]1CC[C@@H]2C(=O)O | n
O=CNC(N1CCN(C(NC=O)C(Cl)(Cl)Cl)CC1)C(Cl)(Cl)Cl (stereo unspecified) | y
CC(C(O)c1ccccc1)N(C)C/C=C/c1ccccc1 (stereo unspecified) | n
COc1ncc(F)c2nc(S(=O)(=O)Nc3c(F)cccc3F)nn12 | n
CC(COc1ccc(Oc2ccccc2)cc1)Oc1ccccn1 (stereo unspecified) | n
N#CC(Cl)(Cl)Cl | n
CCC(C)(C)c1cc(-n2nc3ccccc3n2)c(O)c(C(C)(C)CC)c1 | y
CCN(CC)C(C)C(=O)c1ccccc1 (stereo unspecified) | n
CNC(=O)N(C)c1nc2ccccc2s1 | n
C#CCN1C(=O)COc2cc(F)c(N3C(=O)C4=C(CCCC4)C3=O)cc21 | n
Cc1nc(N)nc(N)n1 | n
O=NN1CCCCC1 | n
CNC(=O)Oc1c(C(C)(C)C)cc(C)cc1C(C)(C)C | n
O=C(N[C@H]1CN2CCC1CC2)c1cc2ccoc2cn1 | n
COc1cc(OC)nc(Oc2cccc(Oc3nc(OC)cc(OC)n3)c2C(=O)O)n1 | n
CC(C(=O)c1ccccc1)N(C)C (stereo unspecified) | n
COc1ccc2c(c1OC)CN1CCc3cc4c(cc3C1C2)OCO4 (stereo unspecified) | y

The reported measurements were obtained from PubChem BioAssay (Tox21).
